# Test system: NCI-H1993
# assay_details: relative viability (nuclei count vs DMSO), 5 days (fraction); higher = more cells survive
# assay_conditions: first compound 0.08 µM
We begin with a simple list: items and their reported relative viability.
Just the number, please.

{"compound": "CCCCCCCCCCCC1=C(O)C(=O)C=C(O)C1=O [Embelin] + COc1cc2c(Oc3ccc(NC(=O)C4(C(=O)Nc5ccc(F)cc5)CC4)cc3F)ccnc2cc1OCCCN1CCOCC1 [Foretinib] (partner 0.25 µM)", "relative viability": 0.803}
{"compound": "CCCCCCCCCCCC1=C(O)C(=O)C=C(O)C1=O [Embelin] + CC1(C)CCC(c2ccc(Cl)cc2)=C(CN2CCN(c3ccc(C(=O)NS(=O)(=O)c4ccc(N[C@H](CCN5CCOCC5)CSc5ccccc5)c(S(=O)(=O)C(F)(F)F)c4)cc3)CC2)C1 [Navitoclax] (partner 0.5 µM)", "relative viability": 0.958}
{"compound": "CCCCCCCCCCCC1=C(O)C(=O)C=C(O)C1=O [Embelin] + NC(=O)Nc1cc(-c2cccc(F)c2)sc1C(=O)N[C@H]1CCCNC1 [AZD7762] (partner 0.2 µM)", "relative viability": 0.821}

Entry CCCCCCCCCCCC1=C(O)C(=O)C=C(O)C1=O [Embelin] + O=C(CCCCCCC(=O)Nc1ccccc1)NO [Vorinostat] (partner 1 µM) : reported relative viability = ?
0.825
